molecular target: Short transient receptor potential channel 4 (Mus musculus); assay: potentiation of DAMGO-evoked TRPC4 calcium signal – cell-based, HEK293 TRPC4/mu-opioid, Fluo-4 calcium, EC20 DAMGO, dose response (AID 434941); details: HEK293 TRPC4/mu-opioid cells, Fluo-4 calcium fluorescence; series mostly up to 20 µM;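 note: calcium entry triggered by an EC20 dose of DAMGO at the co-expressed mu-opioid receptor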
Potency and affinity values are given separately. Active and inactive are the calls of the source.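 Rule for the calls: active = earlier screen potentiator hit that boosts the TRPC4 ion channel at some dose, with a dose response; inactive = no potentiation, no dose response, or not a prior hit.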
quantityMeasured: outcome

Known outcome results, listed for orientation:
[
  {
    "molecule": "O=c1c(Cc2ccc(F)cc2)c(O)ccn1CCc1cnc[nH]1",
    "subjectOfTest": "Short transient receptor potential channel 4 (Mus musculus)",
    "observed": "inactive"
  },
  {
    "molecule": "Cc1cc(SCC(=O)c2cccc([N+](=O)[O-])c2)nc(=O)[nH]1",
    "subjectOfTest": "Short transient receptor potential channel 4 (Mus musculus)",
    "observed": "inactive"
  },
  {
    "molecule": "NC(=O)C1CCCN(CCc2ccccc2)C1 (stereo unspecified)",
    "subjectOfTest": "Short transient receptor potential channel 4 (Mus musculus)",
    "observed": "inactive"
  },
  {
    "molecule": "O=C(Nc1ccc(F)cc1)N1CCN2C(=O)c3ccccc3C12c1ccccc1 (stereo unspecified)",
    "subjectOfTest": "Short transient receptor potential channel 4 (Mus musculus)",
    "observed": "inactive"
  },
  {
    "molecule": "COc1ccc(/C=N/n2c(SC)nnc2-c2ccccc2)cc1C",
    "subjectOfTest": "Short transient receptor potential channel 4 (Mus musculus)",
    "observed": "inactive"
  },
  {
    "molecule": "Cc1cc(C)nc(NNS(=O)(=O)c2ccc(F)c(Cl)c2)n1",
    "subjectOfTest": "Short transient receptor potential channel 4 (Mus musculus)",
    "observed": "inactive"
  },
  {
    "molecule": "CSc1ccc(S(=O)(=O)NCC(=O)OCC(=O)N(C)Cc2ccccc2)cc1[N+](=O)[O-]",
    "subjectOfTest": "Short transient receptor potential channel 4 (Mus musculus)",
    "observed": "inactive"
  },
  {
    "molecule": "CC[n+]1c(/C=C/c2ccc(OC(C)=O)c(OC)c2)ccc2ccccc21",
    "subjectOfTest": "Short transient receptor potential channel 4 (Mus musculus)",
    "observed": "inactive"
  }
]

Problem: Param item = Cc1ccc(OCC(=O)N(C)CCc2ccccn2)cc1 ; retrieve measured outcome.
Solution: inactive

Problem: One more molecule: CCN(CC)CCOCCOc1ccc(Cl)c2ccccc12
Solution: inactive

Problem: C1CCN(c2nc(N3CCCCC3)nc(N3CCNCC3)n2)CC1 , same question.
Solution: inactive

----------
system: transient receptor potential cation channel C4 beta (TRPC4), mouse; assay: TRPC4 cation channel opening, second retest – cell-based, second round, Fluo4, HEK293 TRPC4beta/mu-opioid, 1 µM, confirmation (AID 2461); conditions: Fluo4 calcium fluorescence, at 1 µM
Active and inactive are the calls of the source.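 The calls were made as follows: active = primary screen active and over 50% activation in each of two duplicate runs; inactive = the rest.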
The reply should be one of these categories: active, inactive

Problem: Name the outcome recorded for Cc1oc(-c2ccc(Cl)cc2)nc1CS(=O)CC(=O)NCCCN(C)C1CCCCC1 (stereo unspecified) in the assay.
Solution: inactive

Problem: Another compound: OC1(c2cccs2)CN(c2ccc(Cl)cc2)C2=[N+]1CCCC2 (stereo unspecified)
Solution: inactive

Problem: Same thing, different compound: COc1cc(Br)cc(C2C3=C(CCCC3=O)N(c3ccc(F)cc3)C3=C2C(=O)CCC3)c1O
Solution: inactive

Problem: Next: CCOc1ccccc1C1CC(c2ccc(Cl)cc2)Nc2nc(N)nn21 (stereo unspecified)
Solution: inactive

Problem: And what about the compound COc1ccc(C(CNC(=O)/C=C/c2c(Cl)nc3ccccn23)N(C)C)cc1 (stereo unspecified) ?
Solution: active

Problem: Same lookup for O=C(c1ccc(Cl)c(Cl)c1)N(Cc1ccco1)c1ccc(O)cc1 , please.
Solution: inactive

Problem: c1ccc(Cn2c(CN3CCCC3)nc3ccccc32)cc1 ?
Solution: inactive

Problem: Another: CCN1CCCC1CNCc1ccc(Cl)cc1Cl (stereo unspecified)
Solution: inactive

Problem: Can you handle Cc1c(N(C)S(=O)(=O)c2cc(C(=O)NCC3CCCO3)ccc2Cl)c(=O)n(-c2ccccc2)n1C (stereo unspecified) next?
Solution: inactive

Problem: // repeat for CCOc1cc(CNC2CCCC2)cc(Cl)c1OCc1ccccc1 and report
Solution: inactive

Problem: Proceed to Cc1ccc(Nc2cc(C)nc3ccc(C)cc23)cc1
Solution: inactive

Problem: Next compound: Cc1ccc(OCC(=O)N(C)CCc2ccccn2)cc1
Solution: inactive

Problem: And what about the compound CN(CCc1ccccn1)C1CC(=O)N(c2ccc(Cl)cc2)C1=O (stereo unspecified) ?
Solution: active

Problem: What do you have for c1cnc(N2CCN(c3cnccn3)CC2)nc1 ?
Solution: inactive

Problem: What about this compound? CCc1c(C)nc2ccc(Br)cc2c1SCCC#N
Solution: inactive

Problem: Now consider CN(CCc1ccccn1)C(=S)Nc1cccc(S(=O)(=O)N(C)C)c1 and answer again.
Solution: inactive

Problem: Cool, now C/C(=N/OCO/N=C(/C)c1ccc(F)cc1)c1ccc(F)cc1
Solution: inactive

Problem: What would you report for CCCCNC(=O)/C(C#N)=C/c1ccc(F)cc1F ?
Solution: inactive

Problem: Further, for COC(=O)c1cccc2c1-c1ccccc1/C2=N/O ?
Solution: inactive

Problem: Would you kindly repeat that for CCCCN1CCc2c1nc1ccc(Br)cc1c2N ?
Solution: inactive

Problem: # repeat for CCCCC[n+]1cccc2c3ccccc3ccc21
Solution: inactive

Problem: Now the same for CCOC(=O)C1(Cc2ccccc2)CCN(Cc2cccn2-c2cccnc2)CC1
Solution: inactive

Problem: # repeat for CC12CC3(C)CC(C)(C1)CC(NC(=O)N1CCCC1)(C2)C3
Solution: inactive

Problem: Can you check O=C(COc1cc(Cl)c(Cl)cc1Cl)NCCc1ccccn1 next?
Solution: inactive

Problem: Request: CC1CCN(C(C)C(=O)Nc2ccccc2-c2ccccc2)CC1 (stereo unspecified)
Solution: inactive

Problem: # repeat for N=c1n(Cc2ccccc2)c2ccccc2n1CC(O)COc1ccccc1 (stereo unspecified)
Solution: inactive

Problem: Queued: COc1ccc(NC(=O)c2cccc(N3C(=O)C4CC=C(C)CC4C3=O)c2)c(OC)c1 (stereo unspecified)
Solution: inactive

Problem: // repeat for O=C(C1CCCN(Cc2cccc(Cl)c2)C1)N1CCCCC1 (stereo unspecified) and report
Solution: inactive

Problem: Another compound to look at: OC(c1ccccc1)(c1ccccc1)C1CCN(C(=S)NC2CCCC2)CC1
Solution: inactive

Problem: And for O=S(=O)(NCC1NCCc2ccccc21)c1ccccc1 (stereo unspecified) ?
Solution: inactive

Problem: Next up: CCN(C(=O)c1cnc(NC(C)C)cc1C(F)(F)F)c1ccc(Cl)cc1Cl
Solution: inactive

Problem: How about this compound: CCOC(=O)C1(CCOC)CCN(Cc2ccccc2-c2ccco2)CC1
Solution: inactive

Problem: What do you get for Cc1ccc(C(=O)NNC(=O)C2CSC3(C)CCC(=O)N23)cc1 (stereo unspecified) ?
Solution: inactive

Problem: What do we get for CC(=O)N1CC(c2ccccc2)C(c2ccc(Cl)cc2)=N1 (stereo unspecified) ?
Solution: inactive

Problem: Likewise for Cc1ccc(C)c2nc3sc(C(=O)O)cc3cc12 ?
Solution: inactive

Problem: Record: CCCNC(=O)c1nnsc1S(=O)c1ccc(Cl)cc1 (stereo unspecified)
Solution: inactive

Problem: What would you report for Cc1ccc(S(=O)(=O)N2CCC(N3CCN(C)CC3)CC2)cc1Cl ?
Solution: inactive

Problem: What do you get for Cc1cccc(CCN(C(=O)c2snc(C(N)=O)c2N)C(C(=O)NCC2CCCO2)c2ccc(F)cc2)c1 (stereo unspecified) ?
Solution: inactive

Problem: How about this compound: CCOc1ccc2c(C)nc(NC3=NC(C)(C)C=C(C)N3)nc2c1
Solution: inactive

Problem: // next record C#Cc1ccc(CN2CCCC(C(=O)Nc3ccccc3Oc3cccnc3)C2)cc1 (stereo unspecified)
Solution: inactive

Problem: Same question for CC(C)(c1ccccc1)c1ccc(OCCCNCCO)cc1 please.
Solution: inactive

Problem: Next compound up: Clc1ccc(Cl)c(OCCCCN2CCNCC2)c1
Solution: inactive

Problem: What do you have for COc1cccc(CN2CCNC(=O)C2CC(=O)N(C)CCc2ccccn2)c1 (stereo unspecified) ?
Solution: active

Problem: Similarly, N/C(Cc1cccc2ccccc12)=N\OC(=O)c1cccs1 ?
Solution: inactive

Problem: Ok, now NC(=O)c1nsc(C(=O)N(Cc2ccco2)C(C(=O)NCC2CCCO2)c2ccc(F)cc2)c1N (stereo unspecified)
Solution: inactive

Problem: Now give it for Cc1ccc(C(C(=O)NC(C)(C)C)N(C(=O)CCC(=O)Nc2ccccn2)c2ccccc2F)cc1 (stereo unspecified) too.
Solution: inactive

----------
experiment: serotonin-gated TRPC4 signal block – cell-based, second counter screen, HEK293 TRPC4/5HT1a, Fluo-4, counter-screen for TRPC4 inhibitor project, confirmation (AID 434978); conditions: Fluo-4 calcium flux, at 10 µM, serotonin added to trigger calcium flux; active compounds read high
Active and inactive are the calls of the source.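 Rule for the calls: active = primary screen active whose calcium signal fell more than 3 SD beyond the full-serotonin control mean in both duplicate plates; inactive = the rest.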
quantityMeasured: inhibition

Example cases with answers are listed next.
[
  {
    "compound": "NC(=O)NCCN1CCN(c2ncc(C(F)(F)F)cc2Cl)CC1",
    "quantityMeasured": "inhibition",
    "observed": "inactive"
  },
  {
    "compound": "CN(C)CCCN(C(=O)c1ccc(S(=O)(=O)N2CCc3ccccc32)cc1)c1nc2ccc(F)cc2s1",
    "quantityMeasured": "inhibition",
    "observed": "inactive"
  },
  {
    "compound": "Cc1ccc(-c2csc3ncnc(NCCN4CCOCC4)c23)cc1",
    "quantityMeasured": "inhibition",
    "observed": "32.6% (active)"
  },
  {
    "compound": "COc1cccc(CN2CCNC(=O)C2CC(=O)N(C)CCc2ccccn2)c1OC (stereo unspecified)",
    "quantityMeasured": "inhibition",
    "observed": "inactive"
  },
  {
    "compound": "CCOC(=O)CCSc1nc(C)cc(C(F)(F)F)c1C#N",
    "quantityMeasured": "inhibition",
    "observed": "inactive"
  }
]

Okay, now this compound:
Problem: Param item = Cc1sc2ncnc(NCC(c3ccco3)N(C)C)c2c1C (stereo unspecified) ; retrieve measured inhibition.
Solution: inactive

Cited source: PubChem BioAssay
